Reference source for all entries: ChEMBL document CHEMBL3046018

Tested on: Echinochloa crus-galli
assay-explanation: Herbicidal activity against Echinochloa crus-galli (barnyard grass) assessed as growth inhibition at 150 g ai/ha using post-emergence protocol under greenhouse conditions measured 15 days after compound treatment
Type: functional
assay-conditions: 360 h, read-out: GI
Provide the reported inhibition of growth at 150 g/ha of each item.

Just so you know, measured inhibition of growth at 150 g/ha for "CC(C)Oc1cc(N2CC3=C(CCCC3)C2=O)c(F)cc1Cl" came out at < 50%

Just so you know, measured inhibition of growth at 150 g/ha for O=C1C2=C(CCCC2)C(O)N1c1cc(OCc2cccc(F)c2)c(Cl)cc1F (stereo not drawn) came out at < 50%

Just so you know, measured inhibition of growth at 150 g/ha for "CCCOc1cc(N2CC3=C(CCCC3)C2=O)c(Cl)cc1Cl" came out at < 50%

Just so you know, measured inhibition of growth at 150 g/ha for COC1C2=C(CCCC2)C(=O)N1c1cc(OCc2cccc(Cl)c2)c(Cl)cc1F (stereo not drawn) came out at 50%

Just so you know, measured inhibition of growth at 150 g/ha for O=C1C2CCCCC2C(O)N1c1cc(OC2CCCC2)c(Cl)cc1F (stereo not drawn) came out at < 50%

Just so you know, measured inhibition of growth at 150 g/ha for Cc1nn(-c2cc(NS(C)(=O)=O)c(Cl)cc2Cl)c(=O)n1C(F)F [SULFENTRAZONE] came out at < 50%

Just so you know, measured inhibition of growth at 150 g/ha for C=CCOC1C2=C(CCCC2)C(=O)N1c1cc(OCc2cccc(Cl)c2)c(Cl)cc1F (stereo not drawn) came out at < 50%

Just so you know, measured inhibition of growth at 150 g/ha for CC(C)Oc1cc(N2C(=O)C3CCCCC3C2O)c(F)cc1Cl (stereo not drawn) came out at < 50%

###

Tested on: Amaranthus retroflexus
assay-explanation: Herbicidal activity against Amaranthus retroflexus assessed as growth inhibition at 150 g ai/ha using post-emergence protocol under greenhouse conditions measured 15 days after compound treatment
Format: functional
assay-conditions: 360 h, read-out: GI
metric-name: inhibition of growth at 150 g/ha

Just so you know, measured inhibition of growth at 150 g/ha for CCOC(=O)COc1cc(N2C(=O)C3CCCCC3C2O)c(F)cc1Cl (configuration not stated) came out at < 50%

Just so you know, measured inhibition of growth at 150 g/ha for CCOC(=O)C(C)Oc1cc(N2C(=O)C3CCCCC3C2O)c(F)cc1Cl (configuration not stated) came out at < 50%

Just so you know, measured inhibition of growth at 150 g/ha for O=C1C2=C(CCCC2)C(O)N1c1cc(OCc2cccc(Cl)c2)c(Cl)cc1F (configuration not stated) came out at 50%

Just so you know, measured inhibition of growth at 150 g/ha for C=CCOC1C2=C(CCCC2)C(=O)N1c1cc(OCC)c(Cl)cc1F (configuration not stated) came out at 100%

Just so you know, measured inhibition of growth at 150 g/ha for CCOc1cc(Cl)c([N+](=O)[O-])cc1N1C(=O)C2=C(CCCC2)C1O (configuration not stated) came out at > 80%

Just so you know, measured inhibition of growth at 150 g/ha for C#CCOc1cc(N2C(=O)C3CCCCC3C2O)c(F)cc1Cl (configuration not stated) came out at < 50%

Just so you know, measured inhibition of growth at 150 g/ha for COc1cc(N2C(=O)C3CCCCC3C2O)c(F)cc1Cl (configuration not stated) came out at < 50%
